Biological target: EGFR T790ML858R (Homo sapiens, UniProt P00533, L858R/T790M)
Sequence (P00533 25-1210 T790M/L858R): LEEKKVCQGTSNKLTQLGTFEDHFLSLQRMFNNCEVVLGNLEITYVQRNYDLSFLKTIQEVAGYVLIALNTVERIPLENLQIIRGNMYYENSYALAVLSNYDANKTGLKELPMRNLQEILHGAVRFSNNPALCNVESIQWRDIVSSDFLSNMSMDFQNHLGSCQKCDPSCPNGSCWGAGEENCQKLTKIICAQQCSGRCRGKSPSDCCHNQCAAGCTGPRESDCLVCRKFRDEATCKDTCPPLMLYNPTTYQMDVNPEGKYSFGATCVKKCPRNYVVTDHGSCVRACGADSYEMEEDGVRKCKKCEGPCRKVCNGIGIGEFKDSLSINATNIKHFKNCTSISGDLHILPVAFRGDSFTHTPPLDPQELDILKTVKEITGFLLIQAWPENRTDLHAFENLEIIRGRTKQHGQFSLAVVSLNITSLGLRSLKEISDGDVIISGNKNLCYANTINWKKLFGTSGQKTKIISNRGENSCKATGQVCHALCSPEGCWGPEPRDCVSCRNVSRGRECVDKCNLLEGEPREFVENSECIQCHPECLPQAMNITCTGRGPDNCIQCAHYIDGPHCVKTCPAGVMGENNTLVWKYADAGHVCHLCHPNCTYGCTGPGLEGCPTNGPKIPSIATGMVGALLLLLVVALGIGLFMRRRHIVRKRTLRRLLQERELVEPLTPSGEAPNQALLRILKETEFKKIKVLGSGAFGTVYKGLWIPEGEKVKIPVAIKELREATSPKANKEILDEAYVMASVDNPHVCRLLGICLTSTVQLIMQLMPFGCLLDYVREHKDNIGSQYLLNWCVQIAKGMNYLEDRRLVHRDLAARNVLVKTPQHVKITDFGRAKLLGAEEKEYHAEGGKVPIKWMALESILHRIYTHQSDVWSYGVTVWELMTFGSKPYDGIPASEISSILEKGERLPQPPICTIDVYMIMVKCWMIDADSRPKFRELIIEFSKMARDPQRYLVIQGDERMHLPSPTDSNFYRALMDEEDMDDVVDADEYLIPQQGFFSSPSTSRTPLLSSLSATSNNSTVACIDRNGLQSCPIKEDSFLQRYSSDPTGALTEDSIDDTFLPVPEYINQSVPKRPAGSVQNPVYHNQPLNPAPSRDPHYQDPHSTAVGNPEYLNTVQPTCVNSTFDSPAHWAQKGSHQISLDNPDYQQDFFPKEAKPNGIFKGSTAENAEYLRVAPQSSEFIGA
Experiment: EGFR T790ML858R Lance assay
Experimental: Inhibition is indicated as […] [nM] (“−”=not measured). Compounds having an activity designated as “A” provided an IC50≤100 nM; compounds having an activity designated as “B” provided an 100 nM<IC50≤500 nM; compounds having an activity designated as “C” provided an 500 nM<IC50≤1000 nM; compounds having an activity designated as “D” provided an 1000 nM<IC50≤100000 nM; and compounds having an activity designated as “E” provided an IC50>10000 nM.
pIC50: −log10 of the molar value.
endpoint: pIC50

[[record]]
compound = "C=CC(=O)N1CCCc2ccc(-c3c(-c4ccc(N5CCN(C)CC5)cc4)[nH]c4nccc(Cl)c34)cc21 [Example 86, 2,2,2-trifluoroacetate]"
endpoint = "pIC50"
data_value = "≥ 7.00"

[[record]]
compound = "Cc1ccc(-c2c(-c3ccc(N4CCN(C)CC4)cc3)[nH]c3nccc(Cl)c23)cc1NC(=O)CCl [Example 146, 2,2,2-trifluoroacetate]"
endpoint = "pIC50"
data_value = "≥ 7.00"

[[record]]
compound = "C=CC(=O)N1CCCc2ccc(-c3c(-c4cccc(OCCN(C)C)c4)[nH]c4nccc(Cl)c34)cc21 [Example 88]"
endpoint = "pIC50"
data_value = "≥ 7.00"

[[record]]
compound = "C=CC(=O)Nc1cc(-c2c(-c3ccnc(N4CCOCC4)c3)[nH]c3ncc(C(=O)OC(C)C)cc23)ccc1C [Example 166]"
endpoint = "pIC50"
data_value = "6.30 to 7.00"


response.value for C=CC(=O)Nc1cc(-c2c(-c3ccc(N4CCN(C)CC4)cc3)[nH]c3ncc(C(=O)OCCOC)cc23)ccc1C [Example 140] (field: pIC50) = ≥ 7.00
